This listing pairs compounds with measured IC50.
target: ferroportin (Fpn) (Mus musculus, UniProt Q9JHI9); construct: endogenous in cells; test: Hepcidin Internalization Assay (J774); settings: J774 cells, TMR-hepcidin 25 nM, 2 hours; read-out: IC 50, average (AVE) of multiple measurements, hepcidin internalization assay
Sequence (Q9JHI9 whole entry): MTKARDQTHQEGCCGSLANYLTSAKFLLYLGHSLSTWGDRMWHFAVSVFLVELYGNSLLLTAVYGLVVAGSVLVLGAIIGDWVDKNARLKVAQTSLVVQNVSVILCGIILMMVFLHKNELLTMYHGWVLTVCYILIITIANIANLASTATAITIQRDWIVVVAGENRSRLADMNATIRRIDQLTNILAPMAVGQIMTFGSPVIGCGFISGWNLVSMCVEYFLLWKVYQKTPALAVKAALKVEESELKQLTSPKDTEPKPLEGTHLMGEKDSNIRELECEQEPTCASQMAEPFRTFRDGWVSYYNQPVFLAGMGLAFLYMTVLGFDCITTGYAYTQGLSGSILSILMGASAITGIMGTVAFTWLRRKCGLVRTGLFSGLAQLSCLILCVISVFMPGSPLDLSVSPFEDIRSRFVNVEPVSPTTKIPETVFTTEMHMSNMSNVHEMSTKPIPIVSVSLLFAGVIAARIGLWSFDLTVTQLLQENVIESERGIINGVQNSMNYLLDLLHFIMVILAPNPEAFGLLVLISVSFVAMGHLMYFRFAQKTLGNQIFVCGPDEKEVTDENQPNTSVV
Give your result in nM as a bare value.

Some compounds with recorded IC50:
structureSmilesString | valueUnit | measuredResult
O=C(NCc1ncccc1F)c1coc(CCNCCc2nc3cccc(C#Cc4cccc(-c5ncco5)c4)c3[nH]2)n1 | nM | 84
O=C(NCc1ncccc1F)c1coc(CCNCCc2nc3cnc4ccccc4c3[nH]2)n1 | nM | 593
O=C(NCc1ncccc1Cl)c1coc(CCNCCc2nc3cc4c(cc3[nH]2)OCCO4)n1 | nM | 2

Would you kindly look at the next entry?
// query Any idea what its IC50 is? The compound is `O=C(NCc1ncccc1F)c1coc(CCNCCc2nc3cc(-c4cccc5c4OCCO5)ccc3[nH]2)n1`
// result 7
